reported_property: boiling point (°C)
Could you give me the number in °C? Just the number is fine.

Some solved cases for reference:
compound	boiling point [°C]
C1CCC(C(C2CCCCC2)C2CCCCC2)CC1	326
Sc1cccc2ccccc12	285
FC(F)=CCl	-18.5

I am curious: what boiling point value has been reported for `CCCCN(C)C` ?
95

I am curious: what boiling point value has been reported for `Cn1cccn1` ?
127

I am curious: what boiling point value has been reported for `C#CC` ?
-23.2

I am curious: what boiling point value has been reported for `OCc1ccco1` ?
171

###

Tag: 1 (yes) if measured log10 Koc (L/kg) is not below 2, 0 (no) if it is.

molecule	assigned_class
Clc1cc(Cl)c(Cl)c(-c2cc(Cl)cc(Cl)c2Cl)c1	1 (yes)

Kindly determine if log10 Koc (L/kg) recorded for `CN(C)c1nc(=O)n(C2CCCCC2)c(=O)n1C` is above or exactly 2.
0 (no)

Kindly determine if log10 Koc (L/kg) recorded for OC(c1ccc(Cl)cc1)(c1cncnc1)c1ccccc1Cl (stereo not drawn) is above or exactly 2.
1 (yes)

###

Catalogue of melting point readings, one per entry.
Could you give me the number in °C? Just the number is fine.

molecule	reported_property	unit_info	endpoint_value
Cc1ccc(-c2nc3ccc(C)cn3c2CC(=O)N(C)C)cc1	melting point	°C	196
CC(=O)O[C@H]1[C@H]2O[C@]23[C@@H]2CC[C@]4(O)C[C@@H](O)CC[C@]4(C)[C@H]2CC[C@]3(C)[C@H]1c1ccc(=O)oc1	melting point	°C	260
C=C(C)C1CCC(C)(O)CC1 (stereo not drawn)	melting point	°C	32.5
Cc1c([N+](=O)[O-])cc(N)cc1[N+](=O)[O-]	melting point	°C	171

I am curious: what melting point value has been reported for `Cc1ccc2c(-c3ccccc3)nc(=O)n(C(C)C)c2c1` ?
138

I am curious: what melting point value has been reported for `O=[N+]([O-])c1c(F)cc(F)cc1F` ?
3.5

###

Please map values of melting point to classes as shown: bin 0 = under 40 °C, bin 1 = from 40 °C up to 100 °C, bin 2 = 100 °C and over

Illustrative cases are given below, each with its answer.
compound	assigned_class
Cl.Cl.NCCc1c[nH]cn1	bin 2
CCCCCCCCCC(=O)OCC	bin 0
O=C1CCC[C@@H]2[C@H]3CCCN4CCC[C@@H](CN12)[C@@H]34 (racemic)	bin 1
CC(C)(C)OOC(C)(C)CCC(C)(C)OOC(C)(C)C	bin 0
FC(Cl)(Cl)Cl	bin 0

Would you mind sorting CN(C)CCCN1c2ccccc2S(=O)c2ccc(Cl)cc21 (stereo unspecified) into the appropriate category?
bin 2

Would you mind sorting `CCCCCCCCCCOC(=O)CCCCCCCCC` into the appropriate category?
bin 0

Would you mind sorting `CCOC(=O)Nc1ccccc1` into the appropriate category?
bin 1

Would you mind sorting `CCCCCCCCCCCC=O` into the appropriate category?
bin 1

Would you mind sorting `O=[N+]([O-])c1cccc2cccc([N+](=O)[O-])c12` into the appropriate category?
bin 2

Would you mind sorting `CNc1ccccc1[N+](=O)[O-]` into the appropriate category?
bin 0

Would you mind sorting `FC(F)(Cl)C(F)(Cl)C(F)(F)Cl` into the appropriate category?
bin 0

Would you mind sorting `CCCCCCCC=O` into the appropriate category?
bin 0

Would you mind sorting CC(Oc1ccc(Oc2ncc(C(F)(F)F)cc2Cl)cc1)C(=O)O (stereo unspecified) into the appropriate category?
bin 2

Would you mind sorting `Fc1c(F)c(F)c(Br)c(Br)c1F` into the appropriate category?
bin 0

###

Catalogue of melting point readings, one per entry.
Could you give me the number in °C? Just the number is fine.

compound	melting point [°C]
CCCCCCCCCCCCCCCCCCOC(=O)CCSCCC(=O)OCCCCCCCCCCCCCCCCCC	66
O=Cc1ccccc1O	-7
FC(Cl)C(F)(F)Cl (stereo unspecified)	-78
FC(F)(F)C(F)(Cl)C(Cl)(Cl)C(F)(F)F (stereo unspecified)	4
O=[N+]([O-])c1ccc(Oc2c(Cl)cc(Cl)cc2Cl)cc1	106

Now consider a different compound.
I am curious: what melting point value has been reported for `O=c1n(-c2ccccc2)c(=O)n(-c2ccccc2)c(=O)n1-c1ccccc1` ?
285

###

Mark each entry 1 if its log10 vapour pressure (mmHg) sits below -3, and -1 for all others.

Illustrative cases are given below, each with its answer.
molecule	assigned_class
O=C1c2ccccc2C(=O)c2cc(O)ccc21	1
FC(F)COC(F)F	-1
c1ccc2c(c1)ccc1cccnc12	1
CC(C)(C)OO	-1
ClC(Cl)=C(Cl)Cl	-1

--- query ---
Below -3 on log10 vapour pressure (mmHg)? Entry `C(#Cc1ccccc1)c1ccccc1`
-1

###

Catalogue of boiling point readings, one per entry.
Could you give me the number in °C? Just the number is fine.

Some solved cases for reference:
compound	boiling point (°C)
Nc1ccccc1	184
Clc1cnc(Cl)c(Cl)c1	219
CCCCI	131
Clc1ccc(C(c2ccc(Cl)cc2)C(Cl)Cl)cc1	350
CCOC(=O)C(=O)Cl	137

I am curious: what boiling point value has been reported for `CCCCCCCCCCCC` ?
216

I am curious: what boiling point value has been reported for `CC(C)(O)c1ccccc1` ?
202

I am curious: what boiling point value has been reported for `Oc1ccc(Br)cc1Cl` ?
234

###

Tag: 1 if measured boiling point is not below 200 °C, -1 if it is.

compound	assigned_class
O=S(=O)(Cl)c1ccccc1	1

Kindly determine if boiling point recorded for `CCOc1cccc(-c2ccccc2)c1` is above or exactly 200 °C.
1

Kindly determine if boiling point recorded for `Cc1cc(C)c([N+](=O)[O-])cc1C` is above or exactly 200 °C.
1

Kindly determine if boiling point recorded for `C1CCC(C2CCCCC2)CC1` is above or exactly 200 °C.
1

Kindly determine if boiling point recorded for `CCOCCC(OCC)OCC` is above or exactly 200 °C.
-1

Kindly determine if boiling point recorded for C=CC1CO1 (configuration not stated) is above or exactly 200 °C.
-1

Kindly determine if boiling point recorded for `O=C1C=C(c2ccccc2)CC1` is above or exactly 200 °C.
1

Kindly determine if boiling point recorded for `CCc1cc(C)nc(C)c1` is above or exactly 200 °C.
-1

Kindly determine if boiling point recorded for `O=CC=O` is above or exactly 200 °C.
-1

Kindly determine if boiling point recorded for `CCCN(CCC)c1ccccc1` is above or exactly 200 °C.
1

Kindly determine if boiling point recorded for `CC(=O)OCC(COC(C)=O)OC(C)=O` is above or exactly 200 °C.
1

Kindly determine if boiling point recorded for `O=C1CCCN1CCO` is above or exactly 200 °C.
1

Kindly determine if boiling point recorded for `CC(C)Oc1ccccc1` is above or exactly 200 °C.
-1

Kindly determine if boiling point recorded for `CCCCCCCCCCC1CCCC1` is above or exactly 200 °C.
1

Kindly determine if boiling point recorded for `C=CCOC=C` is above or exactly 200 °C.
-1

Kindly determine if boiling point recorded for `Sc1ccc2ccccc2c1` is above or exactly 200 °C.
1

###

Catalogue of boiling point readings, one per entry.
Could you give me the number in °C? Just the number is fine.

I am curious: what boiling point value has been reported for `C[Si](C)(C)CCCCl` ?
151

I am curious: what boiling point value has been reported for `O=Cc1ccc(Cl)c(Cl)c1` ?
248

I am curious: what boiling point value has been reported for `Cn1cccc1` ?
115

I am curious: what boiling point value has been reported for `FCCF` ?
30.7

I am curious: what boiling point value has been reported for CCCOC(=O)C(O)C(O)C(=O)OCCC (centres undefined) ?
303

I am curious: what boiling point value has been reported for `c1ccc2c(c1)[nH]c1ccccc12` ?
355

I am curious: what boiling point value has been reported for `CCCC(=O)OCc1ccccc1` ?
239

###

Catalogue of melting point readings, one per entry.
Could you give me the number in °C? Just the number is fine.

compound	reported_property	endpoint_value
CC(=O)OC(c1ccccc1)C(Cl)(Cl)Cl (configuration not stated)	melting point	87.5
CCCC(=O)[O-].[Na+]	melting point	251
CC(C)Nc1nc(Cl)nc(NC(C)C)n1	melting point	213
NC(=O)Oc1ccccc1	melting point	150
Clc1cc(Cl)cc(Br)c1	melting point	83
Nc1ccccn1	melting point	57.5
CCc1cc(C)cc(CC)c1	melting point	-74.1
CF	melting point	-142
Cc1ccc[nH]1	melting point	-35.6
Cc1cn([C@H]2C[C@H](O)[C@@H](CO)O2)c(=O)[nH]c1=O	melting point	186

I am curious: what melting point value has been reported for `CN1CCN(C(=O)CC(c2ccc(Cl)cc2)(c2ccc(Cl)cc2)c2ccc(Cl)cc2)CC1` ?
214

I am curious: what melting point value has been reported for `CCOC(=O)C#CC(=O)OCC` ?
1.5

I am curious: what melting point value has been reported for CCCNC(C)C(=O)Nc1ccccc1C (configuration not stated) ?
37.5

I am curious: what melting point value has been reported for `CC(=O)Oc1cccc(C)c1` ?
12

I am curious: what melting point value has been reported for `O=c1occc2ccccc12` ?
47

I am curious: what melting point value has been reported for CC(=O)OC1CCCCC1C(C)(C)C (configuration not stated) ?
35

I am curious: what melting point value has been reported for `ClC(I)I` ?
-4

I am curious: what melting point value has been reported for `N#Cc1cnc2ccccc2c1` ?
109

I am curious: what melting point value has been reported for `c1ccc([Se]c2ccccc2)cc1` ?
2.5

I am curious: what melting point value has been reported for `C[C@]12CCC(=O)C=C1C=C[C@@H]1[C@@H]2CC[C@@]2(C)[C@H]1CC[C@@]21CCC(=O)O1` ?
150

I am curious: what melting point value has been reported for `CCCOC(=O)CC` ?
-75.9

I am curious: what melting point value has been reported for `O=C1CCCCCCC1` ?
29

I am curious: what melting point value has been reported for `CCCCCCCCCC(N)=O` ?
108

I am curious: what melting point value has been reported for `C=C(C)C=CC(=C)C` ?
-9

I am curious: what melting point value has been reported for `CCCCCCOc1ccc(O)cc1` ?
46

I am curious: what melting point value has been reported for `O=P(Oc1ccccc1)(Oc1ccccc1)Oc1ccccc1` ?
50.5

I am curious: what melting point value has been reported for CC(C#N)CCC#N (configuration not stated) ?
-45

I am curious: what melting point value has been reported for `N#CI` ?
147

I am curious: what melting point value has been reported for `CCC(CC)COCCC(=O)O` ?
32.5

I am curious: what melting point value has been reported for `Cc1onc(-c2ccccc2)c1C(=O)N[C@@H]1C(=O)N2[C@@H]1SC(C)(C)[C@@H]2C(=O)O` ?
188

I am curious: what melting point value has been reported for `ON=C(C1CC1)C1CC1` ?
76.5

I am curious: what melting point value has been reported for `O=Cc1c[nH]c2ccccc12` ?
196
